target: human CD33 (human, UniProt P20138 18-364); test: cell-based or functional assay
Sequence (P20138 18-364): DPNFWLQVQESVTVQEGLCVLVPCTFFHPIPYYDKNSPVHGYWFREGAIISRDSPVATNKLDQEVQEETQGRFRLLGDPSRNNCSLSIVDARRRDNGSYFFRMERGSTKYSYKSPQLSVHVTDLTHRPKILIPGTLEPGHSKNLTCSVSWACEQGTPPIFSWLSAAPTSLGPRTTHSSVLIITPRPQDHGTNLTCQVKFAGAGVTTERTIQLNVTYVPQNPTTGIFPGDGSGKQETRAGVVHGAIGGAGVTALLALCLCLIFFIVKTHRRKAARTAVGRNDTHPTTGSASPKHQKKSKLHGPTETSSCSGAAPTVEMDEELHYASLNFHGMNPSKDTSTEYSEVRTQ
quantity: Percent CD33 Surface Expression, Monocyte % CD33 (%)
Record the value in %, omitting the unit from your answer.

**Q:** What measured Percent CD33 Surface Expression, Monocyte % CD33 goes with C-68 (antibody, V domains shown, human IgG1) VH: QVQLQESGPGLVKPSQTLSLTCTVSGGSISSGGYYWSWIRQHPGKGLEWIGNIYYSGSTYYNPSLKSRVTISVDTSKNQFSLKLSSVTAADTAVYYCARDLPNSGSPGSDYFDYWGQGTLVTVSS VL: EIVLTQSPGTLSLSPGERATLSCRASQSVSSSYLAWYQQKPGQAPRLLIYGASSRATGIPDRFSGSGSGTDFTLTISRLEPEDFAVYYCQQYDNYPPTFGGGTKVEIK ?
**A:** 71.9

**Q:** Next binder: C-26 (antibody, V domains shown, human IgG1) VH: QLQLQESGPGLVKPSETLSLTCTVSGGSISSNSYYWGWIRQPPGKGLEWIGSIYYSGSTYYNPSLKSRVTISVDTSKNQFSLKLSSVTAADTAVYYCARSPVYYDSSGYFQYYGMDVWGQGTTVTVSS VL: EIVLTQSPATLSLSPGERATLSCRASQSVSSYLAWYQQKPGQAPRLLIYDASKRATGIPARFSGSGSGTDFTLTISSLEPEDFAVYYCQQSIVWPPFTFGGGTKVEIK
**A:** 33

**Q:** Next binder: C-75 (antibody, V domains shown, human IgG1) VH: EVQLLESGGGLVQPGGSLRLSCAASGFTFSSYAMSWVRQAPGKGLEWVSAISASGGSTYYADSVKGRFTISRDNSKNTLYLQMNSLRAEDTAVYYCARLHMTGTASSGMDVWGQGTTVTVSS VL: DIVMTQSPDSLAVSLGERATINCKSSQSVLYSSNNKNYLAWYQQKPGQAPRLLIYGASSRATGIPDRFSGSGSGTDFTLTISRLEPEDFAVYYCQQDYSSPLTFGGGTKVEIK
**A:** 85.9

**Q:** Next binder: C-38 (antibody, V domains shown, human IgG1) VH: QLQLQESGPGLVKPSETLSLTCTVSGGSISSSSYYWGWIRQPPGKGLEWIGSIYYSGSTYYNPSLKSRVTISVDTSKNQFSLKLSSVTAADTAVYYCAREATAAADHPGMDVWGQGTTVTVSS VL: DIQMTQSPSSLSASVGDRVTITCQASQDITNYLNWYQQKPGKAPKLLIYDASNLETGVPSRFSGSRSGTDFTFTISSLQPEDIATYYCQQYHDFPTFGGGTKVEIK
**A:** 27.6

**Q:** Next binder: C-63 (antibody, V domains shown, human IgG1) VH: QVQLVQSGAEVKKPGSSVKVSCKASGGTFSSYAISWVRQAPGQGLEWMGSIIPIFGTANYAQKFQGRVTITADESTSTAYMELSSLRSEDTAVYYCARDLGGQYYGSHHYWGQGTLVTVSS VL: EIVLTQSPATLSVSPGERATLSCRASQSVGSNLAWYQQKPGQAPRLLIYGASTRATGIPARFSGSGSGTEFTLTISSLQSEDFAVYYCQQYNAWPLTFGGGTKVEIK
**A:** 75.6

**Q:** Next binder: C-61 (antibody, V domains shown, human IgG1) VH: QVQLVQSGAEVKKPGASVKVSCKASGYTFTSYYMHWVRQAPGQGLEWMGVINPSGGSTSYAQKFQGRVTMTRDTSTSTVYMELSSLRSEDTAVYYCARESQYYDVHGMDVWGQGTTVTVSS VL: EIVLTQSPGTLSLSPGERATLSCRASQSVSSSYLAWYQQKPGQAPRLLIYGASSRATGIPDRFSGSGSGTDFTLTISRLEPEDFAVYYCQQYYGLPLTFGGGTKVEIK
**A:** 38.3

**Q:** Next binder: C-27 (antibody, V domains shown, human IgG1) VH: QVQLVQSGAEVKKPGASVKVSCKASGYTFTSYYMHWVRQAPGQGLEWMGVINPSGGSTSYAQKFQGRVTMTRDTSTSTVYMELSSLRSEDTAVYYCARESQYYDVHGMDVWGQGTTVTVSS VL: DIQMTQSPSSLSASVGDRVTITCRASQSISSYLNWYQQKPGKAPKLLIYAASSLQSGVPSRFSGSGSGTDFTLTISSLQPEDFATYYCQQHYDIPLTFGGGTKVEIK
**A:** 39.1

**Q:** Next binder: C-10 (antibody, V domains shown, human IgG1) VH: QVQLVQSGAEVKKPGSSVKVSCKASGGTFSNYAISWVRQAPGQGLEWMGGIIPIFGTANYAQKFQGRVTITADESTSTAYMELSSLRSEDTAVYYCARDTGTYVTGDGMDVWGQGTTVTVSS VL: EIVMTQSPATLSVSPGERATLSCRASQSVSSNLAWYQQKPGQAPRLLIYGASTRATGIPARFSGSGSGTEFTLTISSLQSEDFAVYYCQQYVNLPITFGGGTKVEIK
**A:** 31.5

**Q:** Next binder: C-28 (antibody, V domains shown, human IgG1) VH: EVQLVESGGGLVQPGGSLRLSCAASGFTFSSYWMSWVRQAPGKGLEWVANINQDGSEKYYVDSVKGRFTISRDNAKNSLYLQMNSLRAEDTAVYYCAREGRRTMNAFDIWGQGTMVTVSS VL: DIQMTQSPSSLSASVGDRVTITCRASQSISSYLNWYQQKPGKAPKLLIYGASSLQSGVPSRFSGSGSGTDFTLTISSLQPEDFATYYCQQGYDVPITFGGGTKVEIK
**A:** 29.2

**Q:** Next binder: C-87 (antibody, V domains shown, human IgG1) VH: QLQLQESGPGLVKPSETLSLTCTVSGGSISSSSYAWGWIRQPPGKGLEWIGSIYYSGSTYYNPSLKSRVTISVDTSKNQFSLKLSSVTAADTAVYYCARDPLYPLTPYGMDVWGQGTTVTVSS VL: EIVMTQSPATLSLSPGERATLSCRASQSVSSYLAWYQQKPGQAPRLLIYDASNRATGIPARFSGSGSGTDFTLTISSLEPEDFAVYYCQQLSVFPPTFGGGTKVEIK
**A:** 36.1
